Entries annotated with measured LC retention time
- experiment-summary: Thermo Scientific Acclaim RSLC 120 C18, 100 × 2.1 mm, 2.2 µm, 30 °C; A: 90% water + 10% methanol + 0.01% formic acid + 5 mM ammonium formate; B: methanol + 0.01% formic acid + 5 mM ammonium formate; gradient (min/%B) 0.1/1 3/39 14/99.9 16/99.9
- test-settings: stereoisomer not certain
Report the value in min with no unit label.

| compound | test-value |
| --- | --- |
| Cc1ncc([N+](=O)[O-])n1CCCO | 4.21 |
| CCCCCc1cc(O)c2c(c1)OC(C)(C)C1CCC(C(=O)O)=CC21 (stereo not drawn) | 12.5 |
| CNC(=O)CSP(=S)(OC)OC | 5.23 |
| CCCc1nn(C)c2c(=O)[nH]c(-c3cc(C(=O)CN4CCN(CCO)CC4)ccc3OCC)nc12 | 6.94 |
| CC1COC(=O)c2cc3c(cc21)C(C)(C)C(C)C3(C)C (stereo not drawn) | 12 |

Req: What does the data say about its LC retention time? Entry: "CC(C)OP(=O)(OC(C)C)SCc1ccccc1"
Resp: 10.6

Req: Endpoint output: LC retention time of "CC(=O)Nc1ccc(S(=O)(=O)Nc2cc(C)on2)cc1" . Value?
Resp: 5.28

Req: Entry under review: "CCCc1nn(C)c2c(=O)[nH]c(-c3cc(C(=O)CN4CCN(CC)C(=O)C4=O)ccc3OCC)nc12" . Reported LC retention time?
Resp: 8.18

Req: For the compound shown here, "CCCCn1cc(C(=O)c2cccc3ccccc23)c2cccc(O)c21" , give the reported LC retention time.
Resp: 11.2

Req: # get_value(readout='LC retention time', item= "CCCCCCCCCCOc1cc2c(=O)c(C(=O)OCC)c[nH]c2cc1OCC" )
Resp: 13.4

Req: I would be grateful if you could share the reported LC retention time for "CN(C)C(=O)NC1CCCCCCC1" .
Resp: 8.47

Req: For the compound shown here, "O=C1OCC(O)=C1Cc1ccccc1" , give the reported LC retention time.
Resp: 5.06

Req: Can you look up the measured LC retention time of "Cc1c(NC(C)C)c(=O)n(-c2ccccc2)n1C" for me?
Resp: 5.72

Req: Look up LC retention time for this compound: Cc1cn(C2CC(N=[N+]=[N-])C(CO)O2)c(=O)[nH]c1=O (stereo not drawn)
Resp: 4.56

Req: LC retention time for CCS(=O)Cc1ccccc1OC(=O)NC (stereo not drawn) ?
Resp: 4.7

Req: Can you look up the measured LC retention time of "CCCCNc1cc(C(=O)O)cc(S(N)(=O)=O)c1Oc1ccccc1" for me?
Resp: 7.83

Req: Can you look up the measured LC retention time of "COC(=O)C1=CCCN(C)C1" for me?
Resp: 1.74

Req: What value of LC retention time has been recorded for this entry: CN1CCN2c3ccccc3Cc3ccccc3C2C1 (stereo not drawn)
Resp: 6.94

Req: Record request: LC retention time value, item CC12CCC(=O)C=C1CCC1C2CCC2(C)C1CCC2(C)O (stereo not drawn)
Resp: 10.4

Req: # lookup: LC retention time of CCC(C)N(C(=O)SCc1ccccc1)C(C)CC (stereo not drawn)
Resp: 12.8
